# experimental target: bacterial AGPPase (Escherichia coli, UniProt Q93K97, L2V/N6S)
# Sequence (Q93K97 whole entry L2V/N6S, looked up): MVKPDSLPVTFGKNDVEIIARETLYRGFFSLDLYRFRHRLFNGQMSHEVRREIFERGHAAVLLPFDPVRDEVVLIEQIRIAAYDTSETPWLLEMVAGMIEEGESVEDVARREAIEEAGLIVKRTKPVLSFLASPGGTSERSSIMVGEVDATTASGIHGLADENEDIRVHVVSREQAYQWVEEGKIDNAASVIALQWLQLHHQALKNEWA
# Format: biochemical
measured endpoint: inhibition of AGPPase

Consider the reported inhibition of AGPPase for these molecules:
[
  {
    "molecule": "Nc1ncnc2c1ncn2[C@@H]1O[C@H](COP(=O)(O)OP(=O)(O)OP(=O)(O)O)[C@@H](O)[C@H]1O [ATP]",
    "inhibition of AGPPase": "Inhibited"
  },
  {
    "molecule": "O=C(O)[C@H](O)COP(=O)(O)O [3-phosphoglycerate]",
    "inhibition of AGPPase": "Inhibited"
  },
  {
    "molecule": "O=P(O)(O)O [orthophosphate]",
    "inhibition of AGPPase": "not"
  },
  {
    "molecule": "O=P(O)(O)OP(=O)(O)O [inorganic pyrophosphate]",
    "inhibition of AGPPase": "Inhibited"
  },
  {
    "molecule": "Nc1ncnc2c1ncn2[C@@H]1O[C@H](COP(=O)(O)OP(=O)(O)O)[C@@H](O)[C@H]1O [ADP]",
    "inhibition of AGPPase": "Inhibited"
  }
]

Then this molecule:
Short answer for Nc1ncnc2c1ncn2[C@@H]1O[C@H](COP(=O)(O)O)[C@@H](O)[C@H]1O [AMP] : inhibition of AGPPase was Inhibited

###

# experimental target: bacterial AGPPase (Escherichia coli, UniProt Q93K97, L2V/N6S)
# Type: biochemical
# details: pH 7.5
measured endpoint: hydrolysis / recognition as substrate by AGPPase

Example entries begin here.
[
  {
    "compound": "O=[N+]([O-])c1ccc(OP(=O)(O)Oc2ccc([N+](=O)[O-])cc2)cc1 [bis-paranitrophenyl-phosphate]",
    "result": "does not hydrolyze"
  },
  {
    "compound": "O=C(O)[C@H](O)COP(=O)(O)O [3-phosphoglycerate]",
    "result": "does not hydrolyze"
  },
  {
    "compound": "O=P(O)(O)O[C@H]1O[C@H](CO)[C@@H](O)[C@H](O)[C@H]1O [G1P, glucose-1-phosphate]",
    "result": "does not hydrolyze"
  },
  {
    "compound": "O=C(O)[C@H]1O[C@H](OP(=O)(O)OP(=O)(O)OC[C@H]2O[C@@H](n3ccc(=O)[nH]c3=O)[C@H](O)[C@@H]2O)[C@H](O)[C@@H](O)[C@@H]1O",
    "result": "does not recognize"
  },
  {
    "compound": "O=C[C@H](O)[C@@H](O)[C@H](O)[C@H](O)COP(=O)(O)O [G6P, glucose-6-phosphate]",
    "result": "does not hydrolyze"
  },
  {
    "compound": "Nc1nc2c(ncn2[C@@H]2O[C@H](COP(=O)(O)OP(=O)(O)O[C@H]3O[C@H](CO)[C@@H](O)[C@H](O)[C@@H]3O)[C@@H](O)[C@H]2O)c(=O)[nH]1",
    "result": "does not recognize"
  }
]

Now turn to the next compound.
Entry under test: `Nc1ncnc2c1ncn2[C@@H]1O[C@H](COP(=O)(O)O)[C@@H](O)[C@H]1O` . Its hydrolysis / recognition as substrate by AGPPase was does not hydrolyze

Recorded values, source patent US20050181473A1.
